// data source = patent US9796672B2

Each record here notes measured pIC50.
# Subject of test: UniProtKB Q12809
# Sequence (Q12809 whole entry): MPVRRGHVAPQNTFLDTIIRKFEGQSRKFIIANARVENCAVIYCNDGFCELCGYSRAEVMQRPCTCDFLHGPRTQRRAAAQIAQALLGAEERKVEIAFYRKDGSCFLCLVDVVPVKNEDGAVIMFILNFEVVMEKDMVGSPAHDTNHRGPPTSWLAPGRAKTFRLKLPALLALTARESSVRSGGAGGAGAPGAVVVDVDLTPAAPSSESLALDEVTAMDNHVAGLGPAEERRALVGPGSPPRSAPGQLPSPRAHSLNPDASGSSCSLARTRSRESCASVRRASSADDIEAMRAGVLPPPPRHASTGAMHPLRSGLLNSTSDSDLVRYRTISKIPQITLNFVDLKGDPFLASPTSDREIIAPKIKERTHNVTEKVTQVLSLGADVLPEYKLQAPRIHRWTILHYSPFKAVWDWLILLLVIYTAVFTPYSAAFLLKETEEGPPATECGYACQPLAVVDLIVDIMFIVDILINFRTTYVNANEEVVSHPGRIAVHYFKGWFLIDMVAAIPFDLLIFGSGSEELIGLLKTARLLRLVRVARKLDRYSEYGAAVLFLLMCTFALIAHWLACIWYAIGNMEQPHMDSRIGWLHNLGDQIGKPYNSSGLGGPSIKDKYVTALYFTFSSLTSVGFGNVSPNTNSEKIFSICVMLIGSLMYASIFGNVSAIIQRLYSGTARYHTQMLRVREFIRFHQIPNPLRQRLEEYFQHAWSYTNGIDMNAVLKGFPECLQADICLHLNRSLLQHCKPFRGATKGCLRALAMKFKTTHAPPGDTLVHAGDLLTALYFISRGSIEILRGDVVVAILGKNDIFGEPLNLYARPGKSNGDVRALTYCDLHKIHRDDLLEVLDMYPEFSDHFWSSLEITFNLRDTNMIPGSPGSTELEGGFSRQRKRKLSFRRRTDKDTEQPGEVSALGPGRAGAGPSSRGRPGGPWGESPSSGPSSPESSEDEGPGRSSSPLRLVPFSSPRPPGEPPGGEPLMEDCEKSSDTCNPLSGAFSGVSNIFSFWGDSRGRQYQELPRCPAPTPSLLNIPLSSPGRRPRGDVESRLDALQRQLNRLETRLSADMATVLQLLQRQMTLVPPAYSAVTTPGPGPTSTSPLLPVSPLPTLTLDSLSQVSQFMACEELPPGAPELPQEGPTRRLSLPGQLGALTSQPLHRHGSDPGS
# Assay comment: In vitro toxicity, hERG inhibition
# Type: biochemical
Quick note: pIC50 values are minus log10 of concentrations in mol/L.

{"columns": ["Record smiles", "Experimental result"],
 "data": [
  ["CC(C)(CCc1ccc(O)c(OC(F)(F)F)c1)N1Cc2cccc(S(C)(=O)=O)c2C1", 4.36]
]}

The compound listed as "COc1cc(CC[C@@H](C)N2Cc3cc4c(cc3C2)OCO4)ccc1OCCO" shows pIC50 equal to 5.49

The compound listed as "C[C@H](CCc1ccc(OC(=O)N(C)C)c(OC(F)(F)F)c1)N1Cc2ccc(F)cc2C1" shows pIC50 equal to 6.17

The compound listed as "CC(C)(CCc1ccc(O)c(OC(F)(F)F)c1)N1Cc2cccc(C(=O)O)c2C1" shows pIC50 equal to 4.31

The compound listed as "C[C@H](CCc1ccc(O)c(OC(C)(C)C)c1)N1Cc2ccc(S(C)(=O)=O)cc2C1" shows pIC50 equal to 4.96

The compound listed as "COc1cc(CCC(C)(C)N2Cc3cccc(C(=O)N4CCOCC4)c3C2)ccc1O" shows pIC50 equal to 5.13

The compound listed as "COc1cc2c(cc1OC)CN([C@H](C)CCc1ccc(Cl)c(Cl)c1)C2" shows pIC50 equal to 6.54

The compound listed as "COc1cc(CCC(C)(C)N2Cc3cccc(F)c3C2)ccc1OCCO" shows pIC50 equal to 7.00

* * *

# System: neuronal cultures
# Assay comment: Functional neuronal phenotype in neuronal cultures
# Type: cell-based
# Set-up: key: Antagonist: antagonists (block Abeta signaling); Agonist: agonists (block Abeta signaling with U-shaped dose-response curve and toxicity at high doses); Inactive: inactive (no effect in neuronal cultures)
Measurement type: neuronal phenotype

{"columns": ["Record smiles", "Measurement type", "Experimental result"],
 "data": [
  ["CC(C)(CCc1ccc(O)c(OC(F)(F)F)c1)N1Cc2cccc(S(C)(=O)=O)c2C1", "neuronal phenotype", "Antagonist"],
  ["COc1cc(CCC(C)(C)N2Cc3ccc(F)cc3C2)ccc1OCCO", "neuronal phenotype", "Inactive"],
  ["Cc1ccc2c(c1)CN([C@H](C)CCc1ccc(Cl)c(Cl)c1)C2", "neuronal phenotype", "Antagonist"],
  ["CC(C)(CCc1ccc(O)c(Cl)c1)N1Cc2cccc(F)c2C1", "neuronal phenotype", "Antagonist"],
  ["CC(C)Oc1cc(CC[C@@H](C)N2Cc3cccc(F)c3C2)ccc1O", "neuronal phenotype", "Inactive"]
]}

For "COc1cc2c(cc1OC)CN(C(C)(C)CCc1ccc(OCCO)c(OC)c1)C2" on neuronal cultures, measured neuronal phenotype was Inactive

For "COc1cc(CCC(C)(C)N2Cc3cccc(F)c3C2)ccc1OCCO" on neuronal cultures, measured neuronal phenotype was Antagonist

For "COc1ccc2c(c1)CN([C@H](C)CCc1ccc(Cl)c(Cl)c1)C2.Cl" on neuronal cultures, measured neuronal phenotype was Inactive

* * *

# Subject of test: Sigma-2 receptor
# Assay comment: Sigma-2 receptor competitive radioligand binding assay
# Parameters: species or system rat
# Experimental context: read-out: Sigma-2 Receptor Affinity, Ki
pKi: −log10 of the molar value.
Lab note: anything with pKi at or over 8 counts as 1.0; the rest go in 0.0.

Prompt line: Test whether the compound "CC(C)COc1cc(CCC(C)(C)N2Cc3ccc(S(C)(=O)=O)cc3C2)ccc1O" records pKi of 8 or higher.
Response line: 1.0

Prompt line: Test whether the compound "C[C@H](CCc1ccc(Cl)c(Cl)c1)N1Cc2ccc(C(F)(F)F)cc2C1" records pKi of 8 or higher.
Response line: 1.0

Prompt line: Test whether the compound "CC(C)Oc1cc(CC[C@@H](C)N2Cc3cccc(F)c3C2)ccc1O" records pKi of 8 or higher.
Response line: 0.0

* * *

# Assay comment: Mouse liver microsome (MLM) stability
# Type: in vitro ADME
# Experimental context: mouse, microsomes
Measurement type: Mouse liver microsomes, MLM t½
Please answer in the form of a number followed by its unit of measurement.

Reference set, count: 3
{"columns": ["Record smiles", "Experimental result"],
 "data": [
  ["COc1cc(CCC(C)(C)N2Cc3ccc(S(C)(=O)=O)cc3C2)ccc1O", "142 min"],
  ["CC(C)(CCc1ccc(Cl)c(Cl)c1)N1Cc2ccc(N3CCNCC3)cc2C1", "1236.31 min"],
  ["CC(C)(CCc1ccc(O)c(OC(F)(F)F)c1)N1Cc2cccc(F)c2C1", "12 min"]
]}

The compound listed as "CC(C)Oc1cc(CCC(C)(C)N2Cc3cc4c(cc3C2)OCO4)ccc1O" shows Mouse liver microsomes, MLM t½ equal to 6 min

The compound listed as "COc1cc(CCC(C)(C)N2Cc3cccc(C(=O)N4CCOCC4)c3C2)ccc1O" shows Mouse liver microsomes, MLM t½ equal to 45 min

* * *

# Assay comment: Mouse liver microsome (MLM) stability
# Assay type: in vitro ADME
# Experimental context: mouse, microsomes
Measurement type: Mouse liver microsomes, MLM t½ (min)
The reply should be a number in min, with the unit left off.

Reference set, count: 2
{"columns": ["Record smiles", "Mouse liver microsomes, MLM t½, min"],
 "data": [
  ["C[C@H](CCc1ccc(F)cc1)N1Cc2cccc(F)c2C1", 7],
  ["CC(C)(C)Oc1cc(CCC(C)(C)N2Cc3cccc(S(C)(=O)=O)c3C2)ccc1O", 10]
]}

The molecule listed as "CC(C)Oc1cc(CC[C@@H](C)N2Cc3cc4c(cc3C2)OCO4)ccc1O" shows Mouse liver microsomes, MLM t½ equal to 4

* * *

# Subject of test: Sigma-2 receptor
# Assay comment: Sigma-2 receptor competitive radioligand binding assay
# Experimental context: read-out: Sigma-2 Receptor Affinity, Ki
Each record here notes measured pKi.
Quick note: pKi values are minus log10 of concentrations in mol/L.

{"columns": ["Compound", "pKi"],
 "data": [
  ["CC(C)(CCc1ccc(O)c(OC(F)(F)F)c1)N1Cc2ccc(S(C)(=O)=O)cc2C1 [compound 61]", 8.16],
  ["CC(C)Oc1ccc(CC[C@@H](C)N2Cc3cc4c(cc3C2)OCO4)cc1OC(C)C [compound 40]", 8.05],
  ["CC(C)(C)Oc1cc(CCC(C)(C)N2Cc3ccc(S(C)(=O)=O)cc3C2)ccc1O [compound 62]", 8.07],
  ["COc1cc(CCC(C)(C)N2Cc3ccc(N4CCNCC4)cc3C2)ccc1O [compound 111]", 6.13],
  ["CC(C)COc1cc(CCC(C)(C)N2Cc3cccc(F)c3C2)ccc1O [compound 88]", 8.89]
]}

The compound listed as COc1cc(CCC(C)(C)N2Cc3ccc(F)cc3C2)ccc1OCCO [compound 45] shows pKi equal to 6.72

The compound listed as COc1ccc(CCC(C)(C)N2Cc3ccc(S(C)(=O)=O)cc3C2)cc1 [compound 102] shows pKi equal to 8.74

The compound listed as CC(C)Oc1cc(CC[C@@H](C)N2Cc3cc4c(cc3C2)OCO4)ccc1O [compound 25] shows pKi equal to 6.96

The compound listed as COc1cc2c(cc1OC)CN(C(C)(C)CCc1ccc(OCCO)c(OC)c1)C2 [compound 48] shows pKi equal to 7.66

The compound listed as CC(C)Oc1cc(CC[C@@H](C)N2Cc3ccc(F)cc3C2)ccc1O [compound 37] shows pKi equal to 6.85

The compound listed as C[C@H](CCc1ccc(F)cc1)N1Cc2cccc(F)c2C1 [compound 21] shows pKi equal to 7.92

The compound listed as COc1cccc(CCC(C)(C)N2Cc3cccc(C(=O)N4CCNCC4)c3C2)c1 [compound 98] shows pKi equal to 5.00

The compound listed as COc1cc(CC[C@@H](C)N2Cc3cc4c(cc3C2)OCO4)ccc1OCCO [compound 52] shows pKi equal to 6.27

The compound listed as COc1cc(CCC(C)(C)N2Cc3cccc(F)c3C2)ccc1O [compound 53] shows pKi equal to 7.77

The compound listed as CC(C)(CCc1ccc(Cl)cc1)N1Cc2cccc(C(=O)N3CCNCC3)c2C1 [compound 105] shows pKi equal to 6.74

* * *

# Assay comment: Mouse liver microsome (MLM) stability
# Format: in vitro ADME
# Experimental context: mouse, microsomes
Measurement type: Mouse liver microsomes, MLM t½
Please answer in the form of a number followed by its unit of measurement.

{"columns": ["Record smiles", "Measurement type", "Experimental result"],
 "data": [
  ["CC(C)(CCc1ccc(Cl)c(Cl)c1)N1Cc2cccc(C(=O)N3CCNCC3)c2C1", "Mouse liver microsomes, MLM t½", "160.43 min"],
  ["COc1cc(CCC(C)(C)N2Cc3ccc(N4CCNCC4)cc3C2)ccc1O", "Mouse liver microsomes, MLM t½", "27.01 min"],
  ["COCCNC(=O)c1cccc2c1CN(C(C)(C)CCc1ccc(O)c(OC)c1)C2", "Mouse liver microsomes, MLM t½", "163 min"],
  ["COc1cc(CC[C@@H](C)N2Cc3ccc(F)cc3C2)ccc1OCCO", "Mouse liver microsomes, MLM t½", "126 min"],
  ["COc1cc(CCC(C)(C)N2Cc3cccc(C(=O)N(C)CCN(C)C)c3C2)ccc1O", "Mouse liver microsomes, MLM t½", "88 min"],
  ["C[C@H](CCc1ccc(Cl)c(Cl)c1)N1Cc2ccc3ccccc3c2C1", "Mouse liver microsomes, MLM t½", "25 min"],
  ["COc1cc(CC[C@@H](C)N2Cc3cccc(F)c3C2)ccc1OCCO", "Mouse liver microsomes, MLM t½", "66 min"],
  ["COc1cc2c(cc1OC)CN([C@@H](C)CCc1ccc(Cl)c(Cl)c1)C2", "Mouse liver microsomes, MLM t½", "43 min"]
]}

The compound listed as "COc1cccc(CCC(C)(C)N2Cc3cccc(C(=O)N4CCNCC4)c3C2)c1" shows Mouse liver microsomes, MLM t½ equal to 29.35 min

The compound listed as "CN1CCN(C(=O)c2cccc3c2CN(C(C)(C)CCc2ccc(O)c(OC(F)(F)F)c2)C3)CC1" shows Mouse liver microsomes, MLM t½ equal to 5 min
